- System Under Test: SMARCA4 (Homo sapiens, UniProt P51532)
- Sequence (P51532 whole entry): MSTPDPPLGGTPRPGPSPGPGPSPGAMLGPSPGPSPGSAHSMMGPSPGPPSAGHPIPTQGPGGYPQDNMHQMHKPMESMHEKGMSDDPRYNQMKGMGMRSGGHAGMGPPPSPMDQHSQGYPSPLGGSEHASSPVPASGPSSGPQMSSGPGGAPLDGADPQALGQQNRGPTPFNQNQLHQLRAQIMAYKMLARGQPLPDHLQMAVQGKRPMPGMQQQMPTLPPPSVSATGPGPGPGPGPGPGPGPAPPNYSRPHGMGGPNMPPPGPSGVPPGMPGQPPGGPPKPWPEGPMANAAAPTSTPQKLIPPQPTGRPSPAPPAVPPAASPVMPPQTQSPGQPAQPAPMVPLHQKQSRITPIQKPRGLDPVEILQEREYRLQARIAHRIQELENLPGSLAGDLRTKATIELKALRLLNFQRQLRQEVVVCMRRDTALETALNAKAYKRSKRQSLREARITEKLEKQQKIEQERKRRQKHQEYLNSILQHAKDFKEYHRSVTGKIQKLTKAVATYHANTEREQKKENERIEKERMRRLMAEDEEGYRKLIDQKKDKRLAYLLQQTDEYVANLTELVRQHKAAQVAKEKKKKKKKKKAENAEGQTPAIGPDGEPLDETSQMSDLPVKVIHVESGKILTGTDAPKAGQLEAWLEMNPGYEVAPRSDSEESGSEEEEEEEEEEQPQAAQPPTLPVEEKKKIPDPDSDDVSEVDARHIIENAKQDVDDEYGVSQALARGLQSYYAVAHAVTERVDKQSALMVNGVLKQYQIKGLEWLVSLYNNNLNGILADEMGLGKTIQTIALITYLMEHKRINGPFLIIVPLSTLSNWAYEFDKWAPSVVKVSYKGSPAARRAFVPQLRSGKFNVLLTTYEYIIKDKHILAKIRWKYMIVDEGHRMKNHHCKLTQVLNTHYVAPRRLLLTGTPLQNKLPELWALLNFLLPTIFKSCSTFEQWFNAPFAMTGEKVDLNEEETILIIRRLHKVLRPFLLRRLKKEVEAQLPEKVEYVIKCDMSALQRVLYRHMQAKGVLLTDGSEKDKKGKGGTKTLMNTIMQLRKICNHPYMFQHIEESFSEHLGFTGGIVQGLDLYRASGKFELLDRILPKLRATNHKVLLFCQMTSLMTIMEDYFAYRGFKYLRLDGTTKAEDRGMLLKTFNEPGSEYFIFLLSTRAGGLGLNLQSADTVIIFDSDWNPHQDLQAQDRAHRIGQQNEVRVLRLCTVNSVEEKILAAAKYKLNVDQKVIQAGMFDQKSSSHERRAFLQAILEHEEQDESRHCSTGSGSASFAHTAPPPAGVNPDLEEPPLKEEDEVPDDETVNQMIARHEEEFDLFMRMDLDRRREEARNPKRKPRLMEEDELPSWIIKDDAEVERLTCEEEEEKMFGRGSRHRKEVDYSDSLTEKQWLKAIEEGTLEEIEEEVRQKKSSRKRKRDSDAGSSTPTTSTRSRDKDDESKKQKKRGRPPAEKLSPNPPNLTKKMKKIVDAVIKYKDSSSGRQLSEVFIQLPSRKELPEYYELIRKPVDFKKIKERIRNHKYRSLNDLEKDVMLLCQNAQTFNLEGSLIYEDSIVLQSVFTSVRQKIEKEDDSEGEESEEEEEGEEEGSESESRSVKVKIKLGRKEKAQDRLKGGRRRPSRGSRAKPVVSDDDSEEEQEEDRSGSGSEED
- Protocol Summary: HiBiT assay for protein degradation, Hela SMARCA4-HiBiT cells (A series)
- Format: cell-based
- Parameters: fuse HiBiT to the carboxy terminus of SMARCA2 (Promega CS302365) or SMARCA4 (Promega CS3023225); host or cells: HeLa (CRISPR/Cas9 HiBiT knock-in)
- Cond: Hela SMARCA4-HiBiT cells, 24 hours treatment; read-out: SMARC A4 Hela HiBit DC50
Catalogue of DC50 readings, one per entry.
Outcome Measure: DC50

Sample Smiles	Outcome Measure	Result
Cc1ncsc1-c1ccc([C@H](CCCCCN2CCC(c3ccc4c(c3)C3(CCCC3)c3nc(=O)c5c(Cl)cccc5n3-4)CC2)NC(=O)[C@@H]2C[C@@H](O)CN2C(=O)[C@@H](NC(=O)C2(F)CC2)C(C)(C)C)cc1	DC50	< 0.1 µM
Cc1ncsc1-c1ccc([C@H](C)NC(=O)[C@@H]2C[C@@H](O)CN2C(=O)[C@H](C2CCCCC2)n2cc([C@H]3CC[C@H](CN4CCC(c5ccc6c(c5)-n5c(nc(=O)c7c(Cl)cccc75)C65CCCCC5)CC4)CC3)nn2)cc1	DC50	0.1 to 1 µM
Cc1nc(C)c(-c2ccc([C@H](CN3CCOCC3)NC(=O)[C@@H]3C[C@@H](O)CN3C(=O)[C@@H](n3cc([C@H]4CC[C@H](CN5CCC(c6ccc7c(c6)-n6c(nc(=O)c8c(Cl)cccc86)C76CCCCC6)CC5)CC4)nn3)C(C)(C)C)cc2)o1	DC50	> 1 µM
Cc1ncsc1-c1ccc([C@H](CN2CCS(=O)(=O)CC2)NC(=O)[C@@H]2C[C@@H](O)CN2C(=O)[C@@H](n2cc([C@H]3CC[C@H](CN4CCC(c5ccc6c(c5)-n5c(nc(=O)c7c(Cl)cccc75)C65CCCCC5)CC4)CC3)nn2)C(C)(C)C)cc1	DC50	> 1 µM
Cc1ncsc1-c1ccc([C@H](C)NC(=O)[C@@H]2C[C@@H](O)CN2C(=O)[C@@H](n2cc([C@H]3CC[C@H](CN4CCC(c5ccc6c(c5)-n5c(nc(=O)c7c(Cl)cccc75)C6(C)C)CC4)CC3)nn2)C(C)(C)C)cc1	DC50	> 1 µM
Cc1ncsc1-c1ccc([C@H](C)NC(=O)[C@@H]2C[C@@H](O)CN2C(=O)[C@@H](NC(=O)CN2CCC(c3ccc4c(c3)C3(CCCCC3)c3nc(=O)c5c(Cl)cccc5n3-4)CC2)C(C)(C)C)cc1	DC50	< 0.1 µM
Cc1ncsc1-c1ccc([C@H](C)NC(=O)[C@@H]2C[C@@H](O)CN2C(=O)[C@@H](n2cc([C@H]3CC[C@H](CN4CCC(c5ncc6c(n5)-n5c(nc(=O)c7c(Br)cccc75)C65CCCCC5)CC4)CC3)nn2)C(C)(C)C)cc1	DC50	> 1 µM
Cc1ncsc1-c1ccc([C@H](CCCCN2CCC(c3ccc4c(c3)C3(CCCC3)c3nc(=O)c5c(Cl)cccc5n3-4)CC2)NC(=O)[C@@H]2C[C@@H](O)CN2C(=O)[C@@H](NC(=O)C2(F)CC2)C(C)(C)C)cc1	DC50	0.1 to 0.5 µM
Cc1ncsc1-c1ccc([C@H](CN2CCOCC2)NC(=O)[C@@H]2C[C@@H](O)CN2C(=O)[C@H](C2CCOCC2)n2cc([C@H]3CC[C@H](CN4CCC(c5ccc6c(c5)-n5c(nc(=O)c7c(Cl)cccc75)C65CCCCC5)CC4)CC3)nn2)cc1	DC50	> 1 µM
CC(C)(C)[C@@H](C(=O)N1C[C@H](O)C[C@H]1C(=O)N[C@@H](CN1CCOCC1)c1ccc(-c2scnc2C(F)(F)F)cc1)n1cc([C@H]2CC[C@H](CN3CCC(c4ccc5c(c4)-n4c(nc(=O)c6c(Cl)cccc64)C54CCCCC4)CC3)CC2)nn1	DC50	> 1 µM
COC(=O)C[C@H](NC(=O)[C@@H]1C[C@@H](O)CN1C(=O)[C@@H](n1cc([C@H]2CC[C@H](CN3CCC(c4ccc5c(c4)-n4c(nc(=O)c6c(Cl)cccc64)C54CCCCC4)CC3)CC2)nn1)C(C)(C)C)c1ccc(-c2scnc2C)cc1	DC50	> 1 µM
Cc1ncsc1-c1ccc([C@H](CN2CCOCC2)NC(=O)[C@@H]2C[C@@H](O)CN2C(=O)[C@H](C2CCOCC2)n2cc([C@H]3CC[C@H](CN4CCC(c5ccc6c(c5)-n5c(nc(=O)c7c(Br)cccc75)C65CCCCC5)CC4)CC3)nn2)cc1	DC50	0.01 to 0.1 µM
Cc1ncsc1-c1ccc([C@H](CN2CCC(O)CC2)NC(=O)[C@@H]2C[C@@H](O)CN2C(=O)[C@@H](n2cc([C@H]3CC[C@H](CN4CCC(c5ccc6c(c5)-n5c(nc(=O)c7c(Cl)cccc75)C65CCCCC5)CC4)CC3)nn2)C(C)(C)C)cc1	DC50	> 1 µM
Cc1ncsc1-c1ccc([C@H](C)NC(=O)[C@@H]2C[C@@H](O)CN2C(=O)[C@@H](NC(=O)CCN2CCC(c3ccc4c(c3)C3(CCCCC3)c3nc(=O)c5c(Cl)cccc5n3-4)CC2)C(C)(C)C)cc1	DC50	0.501 to 1 µM
Cc1ncsc1-c1ccc([C@@H](NC(=O)[C@@H]2C[C@@H](O)CN2C(=O)[C@@H](n2cc(C3CC3)nn2)C(C)(C)C)C(=O)N2CCC3(CCC(N4CCC(c5ccc6c(c5)-n5c(nc(=O)c7c(Br)cccc75)C65CCCCC5)CC4)CC3)CC2)cc1	DC50	< 0.01 µM
COCCOCCOC[C@H](NC(=O)[C@@H]1C[C@@H](O)CN1C(=O)[C@@H](n1cc([C@H]2CC[C@H](CN3CCC(c4ccc5c(c4)-n4c(nc(=O)c6c(Cl)cccc64)C5(C)C)CC3)CC2)nn1)C(C)(C)C)c1ccc(-c2scnc2C)cc1	DC50	> 1 µM
